Entries and their IC50
Molecular target: PD-1/PD-L1 (Homo sapiens)
Sequence (Q9NZQ7 19-238 limits assumed): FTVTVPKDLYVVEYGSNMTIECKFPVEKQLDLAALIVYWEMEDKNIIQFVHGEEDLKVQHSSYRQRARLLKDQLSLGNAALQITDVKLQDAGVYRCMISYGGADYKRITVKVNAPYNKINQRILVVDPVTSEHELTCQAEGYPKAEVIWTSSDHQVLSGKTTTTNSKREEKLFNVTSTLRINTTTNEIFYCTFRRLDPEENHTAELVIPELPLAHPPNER
Assay: TR-FRET PD-1/PD-L1 binding inhibition at the molecular level (free proteins)
Details: Tag1-PD-L1 and Tag2-PD-1 proteins, twelve concentrations from 200 nM, 2 hours at room temperature, read-out: FRET assay (IC50)

See these solved cases before continuing.
Cc1c(NC(=O)c2cc3n(n2)CCCC3N2CC[C@@H](O)C2)cccc1-c1cccc(NC(=O)c2nc3c(n2C)CCN(CCC24CCC(C(=O)O)(CC2)C4)C3)c1C (stereo partly drawn) | < 0.01 µM
O=C(Nc1cccc(-c2cccc(Nc3nc(C(F)(F)F)nc4cc(CN5CC[C@@H](O)C5)cnc34)c2Cl)c1Cl)c1cc2n(n1)CCC[C@@H]2N1CC[C@@H](O)C1 | 0.01 to 0.1 µM
COc1nc(-c2cccc(-c3cccc(-c4cc5n(n4)CCCC5NCCO)c3Cl)c2Cl)cnc1CNC[C@@H]1CCC(=O)N1 (stereo partly drawn) | < 0.01 µM
O=C(Nc1cccc(-c2cccc(Nc3nc(C(F)F)nc4cc(CN5CC[C@@H](O)C5)cnc34)c2Cl)c1Cl)c1cc2n(n1)CCCC2N1CCC(C(=O)O)CC1 (stereo partly drawn) | < 0.01 µM
O=C(Nc1cccc(-c2cccc(Nc3nc(C(F)(F)F)nc4cccnc34)c2Cl)c1Cl)c1cc2n(n1)CCC[C@H]2N1CCC(O)CC1 | 0.01 to 0.1 µM

Query: What does the record list as IC50 for O=C(Nc1cccc(-c2cccc(Nc3nccc4cc(CN5CC[C@@H](O)C5)cnc34)c2Cl)c1Cl)c1cc2n(n1)CCCC2N1CC(O)C1 (stereo partly drawn) ?
Result: 0.01 to 0.1 µM
